solubility reference
Test: Solubility of the compound in phosphate buffer at pH 7.4
Format: physicochemical
ENDPOINT: solubility (µg/mL)

INSERT INTO measurements (compound, endpoint_value) VALUES
  ('CCc1nc2ccc(Cl)cn2c1C(=O)NCc1ccc(N2CCN(c3ccc(OC(F)(F)F)cc3)CC2)cc1', 1.1),
  ('CCc1nc2cc(Cl)ccn2c1C(=O)NCc1ccc(N2CCC(c3ccc(OC(F)(F)F)cc3)CC2)cc1', 1.32),
  ('CCc1nc2ccc(Cl)cn2c1C(=O)NCc1ccc(N2CCN(c3ccc(F)cc3)CC2)cc1', 1.31),
  ('CCc1nc2ccc(Cl)cn2c1C(=O)NCc1ccc(N2CCC(c3ccc(OC(F)(F)F)cc3)CC2)cc1 [TELACEBEC]', 1.71),
  ('CCc1nc2ccc(Cl)cn2c1C(=O)NCc1ccc(-c2ccc(C#N)cc2)cc1', 0.61),
  ('CCc1nc2ccc(Cl)cn2c1C(=O)NCc1ccc(-c2ccc(Cl)cc2)cc1', 1.97),
  ('CCc1nc2ccc(Cl)cn2c1C(=O)NCc1ccc(N2CCC(c3ccc(F)cc3)CC2)cc1', 3.99),
  ('CCc1nc2ccc(Cl)cn2c1C(=O)NCc1ccc(N2CCC(c3ccc(Cl)cc3)CC2)cc1', 2.59),
  ('CCc1nc2ccc(Cl)cn2c1C(=O)NCc1ccc(-c2ccc(C)cc2)cc1', 1.56);

# credit: ChEMBL document CHEMBL3297708
